Where do the numbers come from? From patent US20190233493A1.

# ASSAYED TARGET: T1, RXFP1 receptor (UniProt Q9HBX9 1-757, limits assumed)
# T1 sequence (looked up): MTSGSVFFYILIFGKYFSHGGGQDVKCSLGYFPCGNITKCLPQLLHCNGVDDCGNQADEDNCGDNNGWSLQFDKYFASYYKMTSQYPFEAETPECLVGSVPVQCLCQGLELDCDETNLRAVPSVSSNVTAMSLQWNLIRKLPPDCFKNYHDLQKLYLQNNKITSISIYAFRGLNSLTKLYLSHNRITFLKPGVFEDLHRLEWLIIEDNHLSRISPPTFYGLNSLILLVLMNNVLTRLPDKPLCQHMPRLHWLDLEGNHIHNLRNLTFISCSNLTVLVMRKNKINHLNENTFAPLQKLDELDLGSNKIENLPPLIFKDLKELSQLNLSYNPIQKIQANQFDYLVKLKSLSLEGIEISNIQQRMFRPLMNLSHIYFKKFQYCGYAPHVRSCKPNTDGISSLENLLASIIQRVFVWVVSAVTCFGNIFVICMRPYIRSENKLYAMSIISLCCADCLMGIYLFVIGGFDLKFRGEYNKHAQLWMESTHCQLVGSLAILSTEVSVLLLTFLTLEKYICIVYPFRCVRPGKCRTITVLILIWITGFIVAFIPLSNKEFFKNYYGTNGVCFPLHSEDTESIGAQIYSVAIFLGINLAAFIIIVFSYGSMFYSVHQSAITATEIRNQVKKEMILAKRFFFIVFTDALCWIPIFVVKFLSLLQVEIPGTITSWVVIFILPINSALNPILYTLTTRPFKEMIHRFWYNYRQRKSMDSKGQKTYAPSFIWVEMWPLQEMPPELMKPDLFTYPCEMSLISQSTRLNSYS
# PROTOCOL NOTES: cell-based or functional assay
*1 amine or outer side, *2 acyl side, *3 side chain or, on linkers, in order; H or OH if unused. Primed or numbered codes have the meaning given here. Side-chain parts run from the residue outwards. [ ]: non-standard residue; d: D form. The star is where a group is joined. Trp(5-OH) = N[C@@H](Cc1c[nH]c2ccc(O)cc12)C(=O)O; Lys(Me3) = C[N+](C)(C)CCCC[C@H](N)C(=O)O; γGlu = O=C(O)[C@H](CCC(=O)[*:2])N[*:1]; Arg(Me) = CNC(=N)NCCC[C@H](N)C(=O)O; Stearoyl = CCCCCCCCCCCCCCCCCC(=O)*; Palmitoyl = CCCCCCCCCCCCCCCC(=O)*; Cit = NC(=O)NCCC[C@H](N)C(=O)O; αMeK = C[C@](N)(CCCCN)C(=O)O; Nle = CCCC[C@H](N)C(=O)O; PEG2′ = PEG2 spacer unit; PEG2″ = not defined here; Aib = CC(C)(N)C(=O)O
MEASUREMENT NAME: EMax, OVCAR 5 cells (cAMP)

Ac-LEGREKVRAK(Ac)I[Aib][Aib]EG[Nle]STWS[Aib][Arg(Me)][Lys(Me3)]K(Ac)K([PEG2′-PEG2′-PEG2′-γGlu-γGlu-γGlu-Stearoyl])-NH2 [peptide of SEQ ID NO: 137]	92%
Ac-LEGREKVRAK(Ac)I[Aib][Aib]EG[Nle]STWSXRKK(Ac)[PEG2′][PEG2′][PEG2′][PEG2′][γGlu][γGlu][γGlu]K([γGlu-Palmitoyl])-NH2 (not fully specified (some residues); printed as Ac-L-E-G-R-E-K-V-R-A-K(Ac)-I-Aib-Aib-E-G-Nle-S-T-W-S-Mly-R-K-K(Ac)-PEG2-PEG2-PEG2-PEG2-gE-gE-gE-K(gE-Palm)-NH2) [peptide of SEQ ID NO: 136]	92%
Ac-LEGREKVRAQI[Aib][Aib]EG[Nle]STWS[Aib]RKK([PEG2′-Palmitoyl])-NH2 [peptide of SEQ ID NO: 50]	95%
Ac-LEGREKVRAK(Ac)I[Aib][Aib]EG[Nle]STFS[αMeK]RAK(Ac)[PEG2″][PEG2″][PEG2″][PEG2″]K([γGlu-γGlu-γGlu-γGlu-Palmitoyl])-NH2 [peptide of SEQ ID NO: 150]	92%
Ac-LEGREKVRAK(Ac)I[Aib][Aib]EG[Nle]STFSXRAK(Ac)[PEG2′][PEG2′][PEG2′][PEG2′][γGlu][γGlu]K([γGlu-γGlu-Palmitoyl])-NH2 (not fully specified (some residues); printed as Ac-L-E-G-R-E-K-V-R-A-K(Ac)-I-Aib-Aib-E-G-Nle-S-T-F-S-Mly-R-A-K(Ac)-PEG2-PEG2-PEG2-PEG2-gE-gE-K(gE-gE-Palm)-NH2) [peptide of SEQ ID NO: 160]	86%
Ac-LEGREKVRAQI[Aib][Aib]EG[Nle]STWS[Aib]RKK([γGlu-γGlu-PEG2″-PEG2″-γGlu-Stearoyl])-NH2 [peptide of SEQ ID NO: 104]	89%
Ac-LEGREKVRAK(Ac)I[Aib][Aib]EG[Nle]STWS[Aib]RKK(Ac)K([PEG2″-PEG2″-PEG2″-PEG2″-γGlu-γGlu-γGlu-Palmitoyl])-NH2 [peptide of SEQ ID NO: 64]	81%
Ac-LEGREKVRAK(Ac)I[Aib][Aib]EG[Nle]STWS[αMeK][Cit]AK(Ac)K([PEG2′-PEG2′-PEG2′-PEG2′-γGlu-γGlu-γGlu-Stearoyl])-NH2 [peptide of SEQ ID NO: 132]	87%
Ac-LEGREKVRAQI[Aib][Aib]EG[Nle]STWS[Aib]RK[PEG2″]K([γGlu-γGlu-γGlu-Palmitoyl])-NH2 [peptide of SEQ ID NO: 10]	96%
Ac-LEGREKVRAK(Ac)I[Aib][Aib]EG[Nle]STWS[Aib]RKK(Ac)K([PEG2′-PEG2′-PEG2′-γGlu-γGlu-γGlu-γGlu-Stearoyl])-NH2 [peptide of SEQ ID NO: 128]	91%
Ac-LEGREKVRAQI[Aib][Aib]EG[Nle]STWS[Aib]RKK[PEG2″][PEG2″][PEG2″][γGlu][γGlu][γGlu]K([γGlu-Palmitoyl])-NH2 [peptide of SEQ ID NO: 110]	80%
Ac-LEGREKVRAK(Ac)I[Aib][Aib]EG[Nle]ST[Trp(5-OH)]S[Aib]RKK(Ac)K([PEG2′-PEG2′-PEG2′-γGlu-γGlu-γGlu-Stearoyl])-NH2 [peptide of SEQ ID NO: 158]	90%
